Recorded values, source patent US10711006B2.

Target: hERG potassium channel (Homo sapiens (Human), UniProt Q12809)
Sequence (Q12809 whole entry): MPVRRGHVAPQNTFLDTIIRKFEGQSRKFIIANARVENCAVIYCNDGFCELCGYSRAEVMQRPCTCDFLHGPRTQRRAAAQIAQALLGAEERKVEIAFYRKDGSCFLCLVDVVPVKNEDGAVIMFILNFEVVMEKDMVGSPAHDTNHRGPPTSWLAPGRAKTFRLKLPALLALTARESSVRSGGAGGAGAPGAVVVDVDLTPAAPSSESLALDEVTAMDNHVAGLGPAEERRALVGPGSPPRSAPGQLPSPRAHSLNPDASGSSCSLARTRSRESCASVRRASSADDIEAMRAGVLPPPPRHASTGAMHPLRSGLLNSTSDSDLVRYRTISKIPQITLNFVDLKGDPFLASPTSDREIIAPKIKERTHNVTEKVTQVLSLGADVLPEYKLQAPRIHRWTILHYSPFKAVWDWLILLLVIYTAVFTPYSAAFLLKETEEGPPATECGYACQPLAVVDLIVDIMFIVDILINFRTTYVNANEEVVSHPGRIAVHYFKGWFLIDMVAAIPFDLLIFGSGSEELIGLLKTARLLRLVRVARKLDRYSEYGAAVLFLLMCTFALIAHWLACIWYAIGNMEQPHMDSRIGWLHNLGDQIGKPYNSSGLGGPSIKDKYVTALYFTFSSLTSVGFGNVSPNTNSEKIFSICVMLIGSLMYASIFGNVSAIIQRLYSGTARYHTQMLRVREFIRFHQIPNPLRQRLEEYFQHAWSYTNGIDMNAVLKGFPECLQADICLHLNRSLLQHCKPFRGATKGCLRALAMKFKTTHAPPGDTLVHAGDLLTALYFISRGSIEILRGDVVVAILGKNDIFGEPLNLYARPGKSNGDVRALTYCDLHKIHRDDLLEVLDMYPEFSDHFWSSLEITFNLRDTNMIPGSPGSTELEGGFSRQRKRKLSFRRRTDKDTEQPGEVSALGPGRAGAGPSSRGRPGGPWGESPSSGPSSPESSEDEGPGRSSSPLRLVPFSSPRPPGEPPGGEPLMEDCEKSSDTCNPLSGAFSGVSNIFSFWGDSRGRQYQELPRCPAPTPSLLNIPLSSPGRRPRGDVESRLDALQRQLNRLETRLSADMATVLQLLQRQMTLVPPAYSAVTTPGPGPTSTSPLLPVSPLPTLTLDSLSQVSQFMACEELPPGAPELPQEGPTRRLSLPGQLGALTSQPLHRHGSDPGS
Assay: hERG potassium channel inhibitory activity, manual patch clamp in CHO cells
Conditions: CHO cells stably expressing hERG, whole-cell patch clamp
Description: The cells used in this experiment were CHO cell lines transfected with HergCdna and stably expressing Herg channels (supplied by Sophion Bioscience, Denmark). […] This experiment uses a manual patch clamp system (HEKA EPC-10 signal amplifier and digital conversion system, purchased from HEKA Electronics, Germany) for the recording of whole cell currents. […] The test data was analyzed by data analysis software provided by HEKA Patchmaster, Microsoft Excel and Graphpad Prism.
Measured IC50, listed per entry.

C=CC(=O)N1CCC[C@@H](n2nc(-c3ccc(Oc4ccc(C)cc4)nc3)c3c(N)ncnc32)C1 [Compound 15i] | 13.5 µM

May I ask what IC50 has been recorded for C=CC(=O)N1CC[C@@H](n2nc(-c3ccc(Oc4ccccc4)nc3)c3c(N)ncnc32)C1 [Compound 23a] ?
18.2 µM

May I ask what IC50 has been recorded for C=CC(=O)N1CCC[C@@H](n2nc(-c3ccc(Oc4ccc(F)cc4)nc3)c3c(N)ncnc32)C1 [Compound 15b] ?
11.6 µM

May I ask what IC50 has been recorded for C=CC(=O)N1CC[C@@H](n2nc(-c3ccc(Oc4ccccc4)nc3F)c3c(N)ncnc32)C1 [Compound 24a] ?
7.66 µM

May I ask what IC50 has been recorded for C=CC(=O)N1CCC[C@@H](n2nc(-c3ccc(Oc4ccccc4)nc3F)c3c(N)ncnc32)C1 [Compound 17a] ?
7.8 µM
